Target Or Test System: Torsin-1A-interacting protein 2 (Homo sapiens)
Procedure Summary: small molecules binding lysate-expressed LULL1 – cell lysate, human LULL1 lysate, 635/667 nm fluorescence, primary screen (AID 1092);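 further: probe is lysate of COS7 cells overexpressing human LULL1; score merges per-feature 667 nm fluorescence with signal-to-noise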
Cond: small-molecule microarray, hLULL1 lysate binding, 635 nm fluorescence; higher = more signal
Experimental Readout: composite z-score

compound=O=C1O[C@H](c2ccccc2)[C@H](c2ccccc2)N2[C@H]1[C@@H](C(=O)O)[C@]1(C(=O)Nc3ccc(C#CCCO)cc31)[C@H]2c1ccccc1OCCO endpoint_value=2.97
compound="CCCCCN1CC=CC23O[C@@H]4C=CCCOC(=O)C4[C@H]2C(=O)N(CCCCCCO)[C@@H]3C1=O (stereo partly drawn)" endpoint_value=3.49
compound="OCCCC1=CC(c2ccc(CN3CCCC3)cc2)N(Cc2cc3c(cc2Br)OCO3)CC1 (stereo not drawn)" endpoint_value=-0.692
compound=C=CCN1Cc2ccccc2[C@@H]2OC(c3ccc(OCCCO)cc3)=N[C@]2(CC=C)C1=O endpoint_value=3.15
compound="C=CCC(OC(C)=O)[C@@H]1[C@@H](N(Cc2cc3ccccc3o2)C(=O)Cc2ccc(F)cc2)c2cc(OCCCO)ccc2N1C(=O)Cc1ccc2ccccc2c1 (stereo partly drawn)" endpoint_value=0.426
compound="CC(C)C(O)C1C=CC2C(=O)N(c3ccccc3)C(=O)C2N1Nc1ccccc1 (stereo not drawn)" endpoint_value=3.42
compound="O=C1OCCC=C[C@H]2OC34C=CCN(Cn5nnc6ccccc65)C(=O)[C@H]3N(CCCO)C(=O)[C@@H]4C12 (stereo partly drawn)" endpoint_value=-1.7
compound=O=C(O)[C@@H]1[C@@H]2C(=O)N(c3ccccc3)C(=O)[C@@H]2C[C@@H]1Sc1ccccc1 endpoint_value=0.758

----------
Listed here are compounds together with their documented z-score.
Target Or Test System: Homeobox protein Hox-A13 (Mus musculus)
Procedure Summary: disruptors of Hoxa13 oligonucleotide interaction – biochemical, fluorescence polarization, labeled oligonucleotide, primary screen (AID 1185)
Cond: Hoxa13:DNA binding, 15 min, higher = more signal, called active from +8 up or from −8 down
Experimental Readout: z-score

compound="COC(=O)C1=CC(CCCO)=CC(c2cccs2)N(C)C=C1C(=O)OC (stereo not drawn)" experimental_readout=z-score endpoint_value=-7.53
compound=Oc1ccc2cc[n+](Cc3cc4c(cc3Br)OCO4)cc2c1 experimental_readout=z-score endpoint_value=-8.63
compound="O=C(C1N=C(c2ccc(OCCCO)cc2)N(c2ccccc2)O1)N1CCCCC1 (stereo not drawn)" experimental_readout=z-score endpoint_value=-3.7
compound="C=CCC(OC(C)=O)[C@@H]1[C@@H](N(Cc2cccc3ccccc23)C(=O)Cc2ccc(F)cc2)c2cc(OCCCO)ccc2N1C(=O)c1ccc2ccccc2c1 (stereo partly drawn)" experimental_readout=z-score endpoint_value=-1.39
compound=CCOC(=O)C[C@H]1[C@H](OC(=O)Cc2ccc3c(c2)OCO3)[C@@H](NC(=O)C2CCCCC2)c2cc(OCCCO)ccc2N1C(=O)c1ccccc1 experimental_readout=z-score endpoint_value=-3.57
compound=COC(=O)[C@@]1(Cc2ccc(OC)cc2)[C@H]2c3cc(C(=O)N4CCCC4)n(CCc4c[nH]c5ccc(OC)cc45)c3C[C@H]2CN1C(=O)c1ccccc1 experimental_readout=z-score endpoint_value=-2.82
compound=COC(=O)[C@@]1(Cc2ccc(OC)cc2)[C@H]2c3cc(C(=O)N(C)C)n(Cc4ccc(OC(F)(F)F)cc4)c3C[C@H]2CN1C(=O)c1ccccc1 experimental_readout=z-score endpoint_value=-5.65
compound=CC[C@@H]1C=C(C(=O)O)[C@H](c2ccccc2)N1S(=O)(=O)c1ccc(C)cc1 experimental_readout=z-score endpoint_value=-3.56

----------
Listed here are compounds together with their documented composite z-score.
Tested on: Plasmodium falciparum Sir2 (PF13_0152, Sir2A)
Procedure Summary: Plasmodium falciparum Sir2A binding compounds – biochemical, small-molecule microarray, 635 nm fluorescence, primary screen (AID 1098);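 further: score merges spot fluorescence intensity with its signal-to-noise ratio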
Cond: fluorescence 635 nm, higher = more signal
Experimental Readout: composite z-score

compound="CC(C)C(CO)N1C(=O)[C@@H]2C3C(=O)OCCC/C=C\\[C@H]3OC23C=CCN(c2ccc4ccccc4c2)C(=O)[C@@H]13 (some centres not stated)" target_or_test_system="Plasmodium falciparum Sir2 (PF13_0152, Sir2A)" endpoint_value=0.552
compound="C=CCC(OC(C)=O)[C@@H]1[C@@H](N(Cc2cc3ccccc3o2)C(=O)Cc2ccc(F)cc2)c2cc(OCCCO)ccc2N1C(=O)Cc1ccc2ccccc2c1 (some centres not stated)" target_or_test_system="Plasmodium falciparum Sir2 (PF13_0152, Sir2A)" endpoint_value=-0.255
compound=COC(=O)c1c(CC[C@@H](CO)NC(=O)N[C@@H](C)Cn2cc(-c3ccccn3)nn2)oc(C(C)=O)c1C(=O)OC target_or_test_system="Plasmodium falciparum Sir2 (PF13_0152, Sir2A)" endpoint_value=1.09
compound=COCCOC(=O)N1C(=O)[C@@]2(c3ccccc31)[C@H](c1ccc(O)cc1)N1[C@H](c3ccccc3)[C@H](c3ccccc3)OC(=O)[C@H]1[C@@H]2C(=O)N1CCN(c2ncccn2)CC1 target_or_test_system="Plasmodium falciparum Sir2 (PF13_0152, Sir2A)" endpoint_value=1.45
compound="COc1cc(NN2C(C(O)c3ccco3)C=CC3C(=O)N(C)C(=O)C32)cc(OC)c1OC (configuration not stated)" target_or_test_system="Plasmodium falciparum Sir2 (PF13_0152, Sir2A)" endpoint_value=1.5
compound="COc1cc(OC)c(C(O)C2C=CC3C(=O)N(Cc4ccccc4)C(=O)C3N2n2cnnc2)cc1Br (configuration not stated)" target_or_test_system="Plasmodium falciparum Sir2 (PF13_0152, Sir2A)" endpoint_value=1.36
compound=CC1=C2[C@@H](CCc3ccccc3)OB(O)C[C@@H]2[C@@H]2C(=O)N(C)C(=O)[C@@H]2C1 target_or_test_system="Plasmodium falciparum Sir2 (PF13_0152, Sir2A)" endpoint_value=-0.186

----------
Procedure Summary: blockers of DNA damage checkpoint Chk1 activation – imaging, HeLa, hydroxyurea, phospho-Chk1 antibody, percent positive cells, primary screen (AID 1186)
Cond: hydroxyurea-induced phospho-Chk1 immunofluorescence imaging, higher = more signal
Active and inactive are the calls of the source. The rule behind the calls is not given here.
Listed here are molecules together with their documented z-score.
Experimental Readout: z-score

molecule=O=C(c1ccccc1)N1C(=O)[C@]2(Cc3ccccc31)N=C(c1ccc(OCCCO)cc1)O[C@@H]2c1ccccc1 experimental_readout=z-score endpoint_value="0.546 (inactive)"
molecule=CCCCC(=C=CC[C@H](O)c1ccc(OCCO)cc1)CCO experimental_readout=z-score endpoint_value="-0.373 (inactive)"
molecule=CN(C)C(=O)[C@]1(CCC(=O)OC(C)(C)C)N=C(c2ccc(OCCCO)cc2)O[C@@H]1c1ccccc1CN=[N+]=[N-] experimental_readout=z-score endpoint_value="-0.165 (inactive)"
molecule="CCCCCN1CC=CC23O[C@@H]4/C=C\\CCC(C)OC(=O)C4[C@H]2C(=O)N(C(CO)C(C)C)[C@@H]3C1=O (stereo partly drawn)" experimental_readout=z-score endpoint_value="-0.584 (inactive)"
molecule="CCCCC(O)C1C=CC2C(=O)N(C)C(=O)C2N1N(c1ccccc1)c1ccccc1 (stereo not drawn)" experimental_readout=z-score endpoint_value="-0.0768 (inactive)"
molecule="CC(CO)N1C(=O)[C@]2(C)C3C(=O)OCCC/C=C\\[C@H]3OC23C=CCN(c2ccc(Cl)cc2)C(=O)[C@@H]13 (stereo partly drawn)" experimental_readout=z-score endpoint_value="0.0747 (inactive)"
molecule="O=C(C1N=C(c2ccc(OCCCO)cc2)N(c2ccccc2)O1)N1CCCCC1 (stereo not drawn)" experimental_readout=z-score endpoint_value="-0.216 (inactive)"
molecule=COC(=O)[C@@]1(Cc2ccc(OC)cc2)[C@H]2c3cc(C(=O)N(C)C)n(Cc4ccc(OC(F)(F)F)cc4)c3C[C@H]2CN1C(=O)c1ccccc1 experimental_readout=z-score endpoint_value="0.154 (inactive)"

----------
Listed here are molecules together with their documented z-score.
Procedure Summary: JC-1 mitochondrial signal, unstimulated MM1S myeloma – cell-based, JC-1 fluorescence, 24 h, 100 nL compound, profiling panel (AID 1170); further: test concentration not given here
Cond: MM1S mitochondrial potential, higher = more signal
Experimental Readout: z-score

molecule="CCCCCCCCCC(O)C1C=CC2C(=O)N(c3ccccc3)C(=O)C2N1Nc1cc(OC)c(OC)c(OC)c1 (stereo not drawn)" experimental_readout=z-score endpoint_value=-1.21
molecule=COc1ccc([Si](C)(C)[C@@H]2[C@@H](CC(=O)N3Cc4ccccc4C[C@H]3CO)O[C@]3(C(=O)N(Cc4ccc(N5C(=O)c6cccc7cccc5c67)cc4)c4ccccc43)[C@H]2C)cc1 experimental_readout=z-score endpoint_value=0.893
molecule=COC(=O)[C@@]1(Cc2ccc(F)cc2)[C@H]2c3cc(C(=O)N4CCCC4)n(CCc4c[nH]c5ccccc45)c3C[C@H]2CN1C(=O)c1ccccc1 experimental_readout=z-score endpoint_value=-1.21
molecule="O=C1OCCC=C[C@H]2OC34C=CCN(c5ccc6ccccc6c5)C(=O)[C@H]3N(CCCO)C(=O)[C@@H]4C12 (stereo partly drawn)" experimental_readout=z-score endpoint_value=-0.89
molecule=CN(C)C(=O)[C@@]1(Cc2ccccc2CN=[N+]=[N-])N=C(c2ccc(OCCCO)cc2)O[C@H]1c1ccccc1N=[N+]=[N-] experimental_readout=z-score endpoint_value=-0.796
molecule=CC[C@@H]1O[Si](C(C)C)(C(C)C)c2c1cc(-c1cc(C)c(OC)c(C)c1)nc2-c1ccc(Oc2ccccc2)cc1 experimental_readout=z-score endpoint_value=0.207
molecule="CCC1=C2CN(Cc3ccccc3)[C@@H](C(=O)Cc3ccccc3)C2C=CCC1 (stereo partly drawn)" experimental_readout=z-score endpoint_value=-0.948
molecule=[N-]=[N+]=NCc1ccccc1C[C@@]1(C(N)=O)N=C(c2ccc(OCCCO)cc2)O[C@@H]1c1ccccc1 experimental_readout=z-score endpoint_value=-0.301
molecule=CCOC(=O)C[C@H]1[C@H](OC(=O)c2ccc(C(=O)c3ccccc3)cc2)[C@@H](NC(=O)C2CCCCC2)c2cc(OCCCO)ccc2N1C(=O)c1ccc2ccccc2n1 experimental_readout=z-score endpoint_value=-0.543
molecule="CCCCCN1CC=CC23O[C@@H]4/C=C\\CCC(C)OC(=O)C4[C@H]2C(=O)N(C(CO)C(C)C)[C@@H]3C1=O (stereo partly drawn)" experimental_readout=z-score endpoint_value=-0.577
molecule="CC(CO)N1C(=O)[C@]2(C)C3C(=O)OCCC/C=C\\[C@H]3OC23C=CCN(c2ccc(Cl)cc2)C(=O)[C@@H]13 (stereo partly drawn)" experimental_readout=z-score endpoint_value=-0.302
molecule=CCOC(=O)C1=C[C@@H](C(C)C)N(S(=O)(=O)c2ccc(C)cc2)[C@H]1c1ccc(C(F)(F)F)cc1 experimental_readout=z-score endpoint_value=-0.446
molecule=COC(=O)[C@]1(CCS(=O)(=O)c2ccccc2)N=C(c2ccc(OCCCO)cc2)O[C@@H]1c1ccccc1N=[N+]=[N-] experimental_readout=z-score endpoint_value=0.546
molecule="CCCC1(C(=O)OC)C=C2C(=C(C)C(=O)C2C)CN1 (stereo not drawn)" experimental_readout=z-score endpoint_value=-0.974
molecule="N#Cc1ccc(NN2C(C(O)c3ccc(Br)cc3)C=CC3C(=O)N(c4ccccc4)C(=O)C32)cc1 (stereo not drawn)" experimental_readout=z-score endpoint_value=0.0172
molecule="CC1CC/C=C\\[C@H]2OC34C=CCN(C(C)C)C(=O)[C@H]3N(CCO)C(=O)[C@@H]4C2C(=O)O1 (stereo partly drawn)" experimental_readout=z-score endpoint_value=1.65
molecule=COCCOC(=O)N1C(=O)[C@@]2(c3cc(C#CC4=CCCCC4)ccc31)[C@H](c1ccccc1OCCO)N1[C@H](c3ccccc3)[C@H](c3ccccc3)OC(=O)[C@H]1[C@@H]2C(=O)N1CCN(c2ncccn2)CC1 experimental_readout=z-score endpoint_value=-1.19
molecule=CO[C@H]1O[C@H](CO)[C@@H](OC(=O)Nc2ccc3c(c2)OCO3)[C@H](OC(=O)Nc2ccc3c(c2)OCO3)[C@@H]1OC(=O)Nc1ccc2c(c1)OCO2 experimental_readout=z-score endpoint_value=-0.357
molecule=CO[C@H]1O[C@H](CO)[C@@H](OC(=O)CCc2ccccc2)[C@@H]2OC(=O)[C@@H](Cc3ccccc3)C/C=C/C[C@H](Cc3ccccc3)C(=O)O[C@@H]12 experimental_readout=z-score endpoint_value=-0.946
molecule="CC(C)N1CC=CC23O[C@@H]4C=CCCOC(=O)C4[C@H]2C(=O)N(CCCO)[C@@H]3C1=O (stereo partly drawn)" experimental_readout=z-score endpoint_value=-0.438
molecule=COc1ccc([Si](C)(C)[C@@H]2[C@@H](CCO)O[C@]3(C(=O)N(Cc4ccccc4)c4ccc(NC(=O)[C@H](C)O)cc43)[C@H]2C)cc1 experimental_readout=z-score endpoint_value=-2.15
molecule="CS(=O)(=O)CCOC(=O)C1=CC(CCCO)=CC(c2ccc(CN3CCCC3)cc2)N(Cc2sc3ccccc3c2Cl)C=C1C(=O)OCCS(C)(=O)=O (stereo not drawn)" experimental_readout=z-score endpoint_value=-0.299
molecule=COC(=O)[C@@]1(Cc2ccc(F)cc2)[C@H]2c3cc(C(=O)N(C)C)n(CCc4ccc(OC)c(Br)c4)c3C[C@H]2CN1C(=O)c1ccccc1 experimental_readout=z-score endpoint_value=-2.89
molecule=COCCOC(=O)N1C(=O)[C@@]2(c3ccccc31)[C@H](C(=O)NC[C@H](O)c1ccccc1)[C@H]1C(=O)O[C@H](c3ccccc3)[C@H](c3ccccc3)N1[C@@H]2c1ccc(O)cc1 experimental_readout=z-score endpoint_value=-0.0503
molecule=CC[C@@H]1C=C(C(=O)O)[C@H](c2ccc(C#N)cc2)N1S(=O)(=O)c1ccc(C)cc1 experimental_readout=z-score endpoint_value=-1.06
molecule=COc1ccc([C@H]2OC[C@@H]3C[C@H](Cc4ccccc4)C(=O)N32)cc1 experimental_readout=z-score endpoint_value=-0.393
molecule=C=C[C@H](C)[C@H](OC(=O)Nc1ccc(SC)cc1)c1ccc(OCCO)cc1 experimental_readout=z-score endpoint_value=-0.72
molecule=[N-]=[N+]=Nc1ccccc1[C@H]1OC(c2ccc(OCCCO)cc2)=N[C@@]1(Cc1ccccc1)C(=O)NCCN1CCOCC1 experimental_readout=z-score endpoint_value=-0.638

Reference for the values: PubChem BioAssay
